- protocol.summary: Tmax in Sprague-Dawley rat at 10 mg/kg, ip measured for 24 hrs by LC-MS/MS analysis
- Assay type: ADME, organism-based
- condition.info: in vivo
measurement.type: Tmax (min)

                                  structure  recorded_result
0  O=C1NCCCCn2cc(cn2)-c2cnc3ccc(cc3c2)CCn2nc(ccc2=O)-c2ccc1c(C(F)(F)F)c2               15

---

- Tested on: BaF3
- protocol.summary: cells
- condition.info: Mus musculus, BaF3, 72 h
measurement.type: IC50

>>> df
                                   compound  measurement_type  recorded_result
0  CN1CCC(COc2cnc(-c3cccc(Cn4nc(-c5cccc(C#N)c5)ccc4=O)c3)nc2)CC1 [TEPOTINIB]              IC50          46.7 nM
